Source of measurements: patent US11332470B2

- protocolDetails: Mouse brain uptake assay (pharmacokinetics and brain penetration after IV administration)
- Assay type: in vivo, Male CD1 Mice
- appliedConditions: male, CD1, plasma; mouse, 3 mg/kg IV, 0-1 h, 3 time points; read-out: Cl (Clearance) (converted)
recordedEndpoint: clearance (mL/min/kg)

Look over these answered cases.
compound	measurementUnit	testResult
Cc1cccnc1C1CCCN1Cc1nc2ccccc2n1C1CCN(C)CC1 (centres unmarked)	mL/min/kg	27.5
CN1CCN(c2c(CN3CCCC3c3ccccn3)nc3ccc(F)cn23)CC1 (centres unmarked)	mL/min/kg	25.5

(I) CN1CCN(c2c(CN3CCCC3c3nccs3)nc3ccccn23)CC1 (centres unmarked)
(II) CN1CCN(c2c(CN3CCCC3c3ncccc3Cl)nc3ccccn23)CC1 (centres unmarked)
(III) CN1CCN(c2cccc3[nH]c(CN4CCCC4c4ncccc4Cl)nc23)CC1 (centres unmarked)
IN: Sort ascending by clearance. Answer format: the labels, in the requested order.
OUT: I, II, III
